# Assay System: Casein kinase II (Homo sapiens, UniProt P19784+P67870+P68400)
# Sequence (P67870 whole entry): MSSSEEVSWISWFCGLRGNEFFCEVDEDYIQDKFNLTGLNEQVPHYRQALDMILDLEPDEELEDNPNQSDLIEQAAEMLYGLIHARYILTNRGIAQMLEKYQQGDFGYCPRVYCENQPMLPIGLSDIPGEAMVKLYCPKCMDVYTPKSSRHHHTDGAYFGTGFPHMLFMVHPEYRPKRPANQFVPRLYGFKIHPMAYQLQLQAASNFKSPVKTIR
# Sequence (P68400 whole entry): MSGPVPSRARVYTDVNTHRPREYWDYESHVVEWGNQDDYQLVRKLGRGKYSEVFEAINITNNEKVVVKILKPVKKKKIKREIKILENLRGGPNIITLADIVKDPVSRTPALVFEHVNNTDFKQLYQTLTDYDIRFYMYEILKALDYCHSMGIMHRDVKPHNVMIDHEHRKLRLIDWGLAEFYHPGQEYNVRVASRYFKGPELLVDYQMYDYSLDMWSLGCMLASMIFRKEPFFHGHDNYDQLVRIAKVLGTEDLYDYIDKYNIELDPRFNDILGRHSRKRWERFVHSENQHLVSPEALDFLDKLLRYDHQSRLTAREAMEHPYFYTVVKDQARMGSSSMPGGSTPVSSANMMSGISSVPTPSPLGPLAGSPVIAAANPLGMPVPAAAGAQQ
# Sequence (P19784 whole entry): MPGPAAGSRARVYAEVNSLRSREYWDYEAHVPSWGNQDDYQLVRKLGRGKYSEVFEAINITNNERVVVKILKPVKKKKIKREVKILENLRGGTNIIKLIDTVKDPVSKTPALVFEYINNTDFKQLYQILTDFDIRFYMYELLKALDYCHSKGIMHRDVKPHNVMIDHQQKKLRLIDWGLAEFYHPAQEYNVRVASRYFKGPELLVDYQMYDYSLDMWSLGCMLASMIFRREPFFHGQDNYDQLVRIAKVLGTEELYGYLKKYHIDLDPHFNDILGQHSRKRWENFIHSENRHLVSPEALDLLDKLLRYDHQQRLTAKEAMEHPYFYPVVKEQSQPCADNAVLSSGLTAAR
# Protocol: Inhibition of recombinant human CK2 activity assessed as [gamma-32P]ATP incorporation into substrate peptide after 20 mins in presence of 50 uM ATP
Entries and their measured IC50 follow.
The reply should be a number in µM, with the unit left off.

Answered examples (5):
Compound	Units Of Measure	IC50
Cc1cc2c(SCC(=O)O)ncnc2s1	µM	4
Cc1nc(SCCC(=O)O)c2cc(-c3ccccc3)sc2n1	µM	3.5
Cc1sc2ncnc(SCCC(=O)O)c2c1C	µM	11.3
Cc1ccc(-c2csc3ncnc(SCCC(=O)O)c23)cc1C	µM	0.175
CC(Sc1ncnc2sc3c(c12)CCCC3)C(=O)O (stereo not given)	µM	17

Reported Casein kinase II (Homo sapiens, UniProt P19784+P67870+P68400) IC50 for item `O=C(O)CCSc1ncnc2scc(-c3ccc(F)cc3)c12` was 1.2

Reported Casein kinase II (Homo sapiens, UniProt P19784+P67870+P68400) IC50 for item `Cc1cc2c(SCCC(=O)O)ncnc2s1` was 7

Reported Casein kinase II (Homo sapiens, UniProt P19784+P67870+P68400) IC50 for item Cc1ccc(-c2csc3ncnc(SC(C)C(=O)O)c23)cc1 (stereo not given) was 31

Reported Casein kinase II (Homo sapiens, UniProt P19784+P67870+P68400) IC50 for item `Cc1ccc(-c2csc3ncnc(SCCC(=O)O)c23)cc1` was 0.1

Reported Casein kinase II (Homo sapiens, UniProt P19784+P67870+P68400) IC50 for item `O=C(O)CSc1ncnc2scc(-c3ccc(Br)cc3)c12` was 14

Reported Casein kinase II (Homo sapiens, UniProt P19784+P67870+P68400) IC50 for item `O=C(O)CSc1ncnc2scc(-c3ccc(Cl)cc3)c12` was 32
